pKi: −log10 of the molar value. Non-standard residues stand in square brackets, D forms with d. Residues, ends and D or L forms follow the SMILES beside them. *: point of attachment. Cbz = O=C(OCc1ccccc1)*; OBn = c1ccc(CO*)cc1; azaGly = NNC(=O)O
Hi! I'm sharing some pKi results obtained with Cathepsin B (Homo sapiens).
recorded.endpoint: pKi

[Q] I'd like to know its pKi. The molecule in question is CC(C)C[C@H](NC(=O)[C@H](CCCNC(=N)N)NC(=O)OCc1ccccc1)C(=O)N[C@H](C(=O)NNC(=O)N[C@@H](Cc1c[nH]c2ccccc12)C(=O)N[C@H](C(=O)N[C@@H](C)C(N)=O)C(C)C)C(C)C (HELM PEPTIDE1{[O=C(OCc1ccccc1)[*:2]].R.L.V.[O=C(NN[*:1])[*:2]].W.V.A.[am]}$$$$V2.0)
[A] 7.37

[P] CC[C@H](C)[C@H](NC(=O)NNC(=O)[C@@H](NC(=O)[C@H](CC(C)C)NC(=O)[C@H](CCCN=C(N)N)NC(=O)OCc1ccccc1)C(C)C)C(=O)N[C@H](C(=O)OC)C(C)C (Cbz-RLV[azaGly]IV-OMe)
[Q] CC(C)C[C@H](NC(=O)OCc1ccccc1)C(=O)N[C@H](C(=O)NNC(=O)N[C@H](C(=O)OCc1ccccc1)C(C)C)C(C)C (Cbz-LV[azaGly]V-OBn)
[R] CC(C)C[C@H](NC(=O)[C@H](CCCNC(=N)N)NC(=O)OCc1ccccc1)C(=O)N[C@H](C(=O)NNC(=O)N[C@@H](C)C(=O)NCC(N)=O)C(C)C (HELM PEPTIDE1{[O=C(OCc1ccccc1)[*:2]].R.L.V.[O=C(NN[*:1])[*:2]].A.G.[am]}$$$$V2.0)
[Q] Sort ascending by pKi. Hello, could you send the labels back in the order asked? Thank you.
[A] Q, R, P

----------
Hi! I'm sharing some pKi results obtained with UniProt:P07858.
pKi: −log10 of the molar value. Non-standard residues stand in square brackets, D forms with d. Residues, ends and D or L forms follow the SMILES beside them. *: point of attachment. 1Nal = N[C@@H](Cc1cccc2ccccc12)C(=O)O; Cbz = O=C(OCc1ccccc1)*; NHBn = c1ccc(CN*)cc1; azaGly = NNC(=O)O
recorded.endpoint: pKi

[Q] I'd like to know its pKi. The molecule in question is CC[C@H](C)[C@H](NC(=O)NNC(=O)[C@H](Cc1cnc[nH]1)NC(=O)[C@H](CC(C)C)NC(=O)[C@H](C)NC(=O)OCc1ccccc1)C(=O)N[C@H](C(=O)OC)C(C)C (Cbz-ALH[azaGly]IV-OMe)
[A] 10.52

[Q] I'd like to know its pKi. The molecule in question is CC[C@H](C)[C@H](NC(=O)NNC(=O)[C@H](Cc1cccc2ccccc12)NC(=O)[C@H](CC(C)C)NC(=O)[C@H](C)NC(=O)OCc1ccccc1)C(=O)N[C@H](C(=O)OC)C(C)C (Cbz-AL[1Nal][azaGly]IV-OMe)
[A] 8.80

[Q] I'd like to know its pKi. The molecule in question is CC[C@H](C)[C@H](NC(=O)NNC(=O)[C@@H](NC(=O)[C@H](CC(C)C)NC(=O)[C@H](CCCN=C(N)N)NC(=O)OCc1ccccc1)C(C)C)C(=O)N[C@H](C(=O)N[C@@H](Cc1c[nH]c2ccccc12)C(N)=O)C(C)C (HELM PEPTIDE1{[O=C(OCc1ccccc1)[*:2]].R.L.V.[O=C(NN[*:1])[*:2]].I.V.W.[am]}$$$$V2.0)
[A] 7.89

[Q] I'd like to know its pKi. The molecule in question is CC(C)C[C@H](NC(=O)[C@H](CCCNC(=N)N)NC(=O)OCc1ccccc1)C(=O)N[C@H](C(=O)NNC(=O)N[C@H](C(=O)N[C@@H](C)C(N)=O)C(C)C)C(C)C (HELM PEPTIDE1{[O=C(OCc1ccccc1)[*:2]].R.L.V.[O=C(NN[*:1])[*:2]].V.A.[am]}$$$$V2.0)
[A] 9.92

[Q] I'd like to know its pKi. The molecule in question is CC[C@H](C)[C@H](NC(=O)NNC(=O)[C@@H](NC(=O)[C@H](CC(C)C)NC(=O)[C@H](C)NC(=O)OCc1ccccc1)[C@@H](C)CC)C(=O)N[C@H](C(=O)OC)C(C)C (Cbz-ALI[azaGly]IV-OMe)
[A] 9.52

[P] CC[C@H](C)[C@H](NC(=O)NNC(=O)[C@H](Cc1ccc(OC)cc1)NC(=O)[C@H](CC(C)C)NC(=O)[C@H](C)NC(=O)OCc1ccccc1)C(=O)N[C@H](C(=O)OC)C(C)C (Cbz-ALY(Me)[azaGly]IV-OMe)
[Q] CC[C@H](C)[C@H](NC(=O)NNC(=O)[C@H](Cc1ccccc1)NC(=O)[C@H](CC(C)C)NC(=O)[C@H](C)NC(=O)OCc1ccccc1)C(=O)N[C@H](C(=O)OC)C(C)C (Cbz-ALF[azaGly]IV-OMe)
[R] CC[C@H](C)[C@H](NC(=O)NNC(=O)[C@@H](NC(=O)[C@H](CC(C)C)NC(=O)[C@H](C)NC(=O)OCc1ccccc1)[C@@H](C)CC)C(=O)N[C@H](C(=O)NCc1ccccc1)C(C)C (Cbz-ALI[azaGly]IV-NHBn)
[Q] # sort list by recorded pKi, greatest to least Hello, could you send the labels back in the order asked? Thank you.
[A] Q, R, P
(Q: 9.89, R: 9.60, P: 8.85)
